Data provenance: paper PMC8063472

assay: Pharmacokinetic study in rats (plasma LC-MS/MS) after iv or oral VOC, oral VOC-P188 or oral VOC-β-CD; format: in vivo, Sprague Dawley rats; details: male, Sprague-Dawley, rat, plasma, po, VOC-P188 solid dispersion po, rat plasma, n = 6; read-out: Tmax
Tmax values for the molecules below.
Unit min implied. Number only.

>  <molecule>
CCC/C=C1\OC(=O)C2=C1CCC=C2 [ZL, Z-ligustilide]

>  <Tmax, min>
29.4

$$$$

Query: Need Tmax of CCC/C=C1\OC(=O)c2ccccc21 , thanks.
Response: 25.2

Query: Need Tmax of CCCCC1OC(=O)C2=C1CCC=C2 (centres unmarked) [SA, senkyunolide A] , thanks.
Response: 12

Query: Need Tmax of CCCC[C@@H]1OC(=O)C2=CCCC[C@H]21 [NOL, Neocnidilide] , thanks.
Response: 25.2

Query: Need Tmax of CCCC[C@@H]1OC(=O)c2ccccc21 [NBP, N-butylphthalide, reference compound] , thanks.
Response: 19.2
